# assayDetails: Single-dose intravenous pharmacokinetics in mice
# Type: in vivo, mouse
# protocolConditions: male; BALB/c mouse, M, n=3, 4.5 mg/kg single IV; plasma LC/MS/MS, non-compartmental; one time point per animal
metricName: AUC(0-inf) (ng·h/mL)

CC(=O)N[C@H]1CSSC[C@@H](C(N)=O)NC(=O)[C@H](CC(=O)O)NC(=O)[C@@H]2CCCN2C(=O)CNC(=O)[C@H](CCCCN)NC(=O)[C@H](CC(=O)O)NC(=O)CNC(=O)[C@H](CCCNC(=N)N)NC1=O [CEND-1]; 3700

* * *

# assayDetails: Single-dose intravenous pharmacokinetics in rats
# Type: in vivo, rat
# protocolConditions: male; Sprague-Dawley rat, M, n=6, 5 mg/kg single IV; plasma LC/MS/MS, non-compartmental; one time point per animal; read-out: V
metricName: Vd

CC(=O)N[C@H]1CSSC[C@@H](C(N)=O)NC(=O)[C@H](CC(=O)O)NC(=O)[C@@H]2CCCN2C(=O)CNC(=O)[C@H](CCCCN)NC(=O)[C@H](CC(=O)O)NC(=O)CNC(=O)[C@H](CCCNC(=N)N)NC1=O [CEND-1]; 0.366 L/kg

* * *

# assayDetails: Single-dose intravenous pharmacokinetics in rats
# Assay type: in vivo, rat
# protocolConditions: female; Sprague-Dawley rat, F, n=6, 5 mg/kg single IV; plasma LC/MS/MS, non-compartmental; one time point per animal
metricName: AUC(0-inf)

CC(=O)N[C@H]1CSSC[C@@H](C(N)=O)NC(=O)[C@H](CC(=O)O)NC(=O)[C@@H]2CCCN2C(=O)CNC(=O)[C@H](CCCCN)NC(=O)[C@H](CC(=O)O)NC(=O)CNC(=O)[C@H](CCCNC(=N)N)NC1=O; 9750 ng·h/mL

* * *

# assayDetails: Single-dose intravenous pharmacokinetics in mice
# Type: in vivo, mouse
# protocolConditions: male; BALB/c mouse, M, n=3, 4.5 mg/kg single IV; plasma LC/MS/MS, non-compartmental; one time point per animal; read-out: V
metricName: Vd

CC(=O)N[C@H]1CSSC[C@@H](C(N)=O)NC(=O)[C@H](CC(=O)O)NC(=O)[C@@H]2CCCN2C(=O)CNC(=O)[C@H](CCCCN)NC(=O)[C@H](CC(=O)O)NC(=O)CNC(=O)[C@H](CCCNC(=N)N)NC1=O; 0.599 L/kg

* * *

# assayDetails: Single-dose intravenous pharmacokinetics in mice
# Format: in vivo, mouse
# protocolConditions: male; BALB/c mouse, M, n=3, 4.5 mg/kg single IV; plasma LC/MS/MS, non-compartmental; one time point per animal; read-out: Cl_obs (converted)
metricName: clearance (mL/min/kg)

CC(=O)N[C@H]1CSSC[C@@H](C(N)=O)NC(=O)[C@H](CC(=O)O)NC(=O)[C@@H]2CCCN2C(=O)CNC(=O)[C@H](CCCCN)NC(=O)[C@H](CC(=O)O)NC(=O)CNC(=O)[C@H](CCCNC(=N)N)NC1=O [CEND-1]; 20.1

* * *

# assayDetails: Single-dose intravenous pharmacokinetics in rats
# Type: in vivo, rat
# protocolConditions: male; Sprague-Dawley rat, M, n=6, 75 mg/kg single IV; plasma LC/MS/MS, non-compartmental; one time point per animal; read-out: V
metricName: Vd (L/kg)

CC(=O)N[C@H]1CSSC[C@@H](C(N)=O)NC(=O)[C@H](CC(=O)O)NC(=O)[C@@H]2CCCN2C(=O)CNC(=O)[C@H](CCCCN)NC(=O)[C@H](CC(=O)O)NC(=O)CNC(=O)[C@H](CCCNC(=N)N)NC1=O [CEND-1]; 0.171

* * *

# assayDetails: Single-dose intravenous pharmacokinetics in dogs
# Format: in vivo, dog
# protocolConditions: male; Beagle dog, M, n=3, 5 mg/kg single IV; plasma LC/MS/MS, non-compartmental; mean (SD); read-out: t1/2 (converted)
metricName: half-life (min)

CC(=O)N[C@H]1CSSC[C@@H](C(N)=O)NC(=O)[C@H](CC(=O)O)NC(=O)[C@@H]2CCCN2C(=O)CNC(=O)[C@H](CCCCN)NC(=O)[C@H](CC(=O)O)NC(=O)CNC(=O)[C@H](CCCNC(=N)N)NC1=O [CEND-1]; 39.3

* * *

# assayDetails: Single-dose intravenous pharmacokinetics in rats
# Assay type: in vivo, rat
# protocolConditions: female; Sprague-Dawley rat, F, n=6, 75 mg/kg single IV; plasma LC/MS/MS, non-compartmental; one time point per animal
metricName: AUC(0-inf)

CC(=O)N[C@H]1CSSC[C@@H](C(N)=O)NC(=O)[C@H](CC(=O)O)NC(=O)[C@@H]2CCCN2C(=O)CNC(=O)[C@H](CCCCN)NC(=O)[C@H](CC(=O)O)NC(=O)CNC(=O)[C@H](CCCNC(=N)N)NC1=O; 166 µg·h/mL

* * *

# assayDetails: Single-dose intravenous pharmacokinetics in cynomolgus monkeys
# Assay type: in vivo
# protocolConditions: male; cynomolgus monkey, M, n=3, 50 mg/kg single IV; plasma LC/MS/MS, non-compartmental; mean (SD); read-out: t1/2 (converted)
metricName: half-life (min)

CC(=O)N[C@H]1CSSC[C@@H](C(N)=O)NC(=O)[C@H](CC(=O)O)NC(=O)[C@@H]2CCCN2C(=O)CNC(=O)[C@H](CCCCN)NC(=O)[C@H](CC(=O)O)NC(=O)CNC(=O)[C@H](CCCNC(=N)N)NC1=O; 57.4

* * *

# assayDetails: Single-dose intravenous pharmacokinetics in mice
# Assay type: in vivo, mouse
# protocolConditions: BALB/c, plasma, iv; mouse, dose level of 4–5 mg/kg; read-out: Cmax (C0)
metricName: C0

CC(=O)N[C@H]1CSSC[C@@H](C(N)=O)NC(=O)[C@H](CC(=O)O)NC(=O)[C@@H]2CCCN2C(=O)CNC(=O)[C@H](CCCCN)NC(=O)[C@H](CC(=O)O)NC(=O)CNC(=O)[C@H](CCCNC(=N)N)NC1=O [CEND-1]; ~40000 ng/mL

* * *

# assayDetails: Single-dose intravenous pharmacokinetics in dogs
# Type: in vivo, dog
# protocolConditions: male; Beagle dog, M, n=5, 75 mg/kg single IV; plasma LC/MS/MS, non-compartmental; mean (SD)
metricName: C0

CC(=O)N[C@H]1CSSC[C@@H](C(N)=O)NC(=O)[C@H](CC(=O)O)NC(=O)[C@@H]2CCCN2C(=O)CNC(=O)[C@H](CCCCN)NC(=O)[C@H](CC(=O)O)NC(=O)CNC(=O)[C@H](CCCNC(=N)N)NC1=O; 461 µg/mL

* * *

# assayDetails: Single-dose intravenous pharmacokinetics in mice
# Type: in vivo, mouse
# protocolConditions: male; BALB/c mouse, M, n=3, 13.5 mg/kg single IV; plasma LC/MS/MS, non-compartmental; one time point per animal
metricName: AUC(0-inf)

CC(=O)N[C@H]1CSSC[C@@H](C(N)=O)NC(=O)[C@H](CC(=O)O)NC(=O)[C@@H]2CCCN2C(=O)CNC(=O)[C@H](CCCCN)NC(=O)[C@H](CC(=O)O)NC(=O)CNC(=O)[C@H](CCCNC(=N)N)NC1=O [CEND-1]; 10600 ng·h/mL
